Molecular target: C. elegans (N2) complex I (NADH:ubiquinone oxidoreductase) (Caenorhabditis elegans, UniProt P24887+Q93873+Q94360)
Sequence (Q94360 17-199): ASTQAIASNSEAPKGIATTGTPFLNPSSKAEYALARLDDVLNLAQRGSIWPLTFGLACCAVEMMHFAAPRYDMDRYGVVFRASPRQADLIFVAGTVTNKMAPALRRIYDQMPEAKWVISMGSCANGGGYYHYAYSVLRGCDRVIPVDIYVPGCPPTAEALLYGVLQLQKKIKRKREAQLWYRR
Sequence (P24887 whole entry): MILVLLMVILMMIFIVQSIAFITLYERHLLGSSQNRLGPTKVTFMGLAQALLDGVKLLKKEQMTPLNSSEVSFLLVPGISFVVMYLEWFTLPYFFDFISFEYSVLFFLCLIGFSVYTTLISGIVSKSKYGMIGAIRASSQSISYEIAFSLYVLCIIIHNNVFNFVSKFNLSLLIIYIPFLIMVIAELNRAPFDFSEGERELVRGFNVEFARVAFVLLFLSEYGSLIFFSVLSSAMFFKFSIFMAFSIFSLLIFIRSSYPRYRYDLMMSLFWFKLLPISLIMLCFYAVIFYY
Sequence (Q93873 31-482): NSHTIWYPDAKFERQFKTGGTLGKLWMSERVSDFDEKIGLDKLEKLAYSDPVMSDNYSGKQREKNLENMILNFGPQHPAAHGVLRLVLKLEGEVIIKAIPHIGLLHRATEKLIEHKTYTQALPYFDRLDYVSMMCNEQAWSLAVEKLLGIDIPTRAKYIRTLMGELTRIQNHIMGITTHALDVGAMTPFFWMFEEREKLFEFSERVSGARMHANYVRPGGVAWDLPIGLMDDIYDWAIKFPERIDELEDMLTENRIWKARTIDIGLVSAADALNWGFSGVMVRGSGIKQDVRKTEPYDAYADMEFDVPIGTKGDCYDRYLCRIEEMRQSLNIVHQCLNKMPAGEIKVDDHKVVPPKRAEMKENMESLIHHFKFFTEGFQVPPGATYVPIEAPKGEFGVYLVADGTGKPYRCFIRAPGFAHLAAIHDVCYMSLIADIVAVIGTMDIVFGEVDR
Assay: biochemical
Format: biochemical
Conditions: Dose 0.0025 µM; read-out: C. elegans mitochondrial complex I activity
quantity: activity at 0.0025 µM (%)
Give the number; % is assumed, so skip it.

Below: 6 compounds and their reported activity at 0.0025 µM.
1) Cc1ccc(SCCCCn2cnc3ccccc32)cc1 [Compound 7925333]
95.1
2) Cc1nc2ccccc2n1CCOc1ccccc1 [Compound 5550112]
93.8
3) Cc1ccc(CSCc2nc3ccccc3[nH]2)cc1 [Compound 7121781]
98
4) Cc1ccc(OCCn2cnc3ccccc32)c(C)c1 [Compound 7706808]
109
5) Nc1nc2ccccc2n1CCOc1ccc(Br)cc1 [Compound 5842535]
88.5
6) Cc1cccc(OCCn2c(C)nc3ccccc32)c1 [Compound 6285199]
85.8

GET /values?readout=activity at 0.0025 µM&item= CCc1cc(OCCn2cnc3ccccc32)ccc1Cl [Compound 7925288] 90.8

GET /values?readout=activity at 0.0025 µM&item= Clc1ccc(SCCCCn2cnc3ccccc32)cc1 [Compound 7925515] 93.3
